# Run description: Acute toxicity in male SWISS mice
# Stated conditions: mouse, in vivo, po; voie orale, souris mâle SWISS; read-out: toxicité (converted)
Metric: LD50 (mg/kg)
Answers are plain numbers, in mg/kg.

Using known records, supply LD50 for CC(=O)Oc1ccc(F)cc1CCC(=O)O [acide fluoro-5 acétyl mélilotique]
1500

* * *

# Run description: Acute toxicity in male SWISS mice
# Stated conditions: mouse, in vivo, ip; voie intrapéritonéale, souris mâle SWISS; read-out: toxicité (converted)
Metric: LD50 (mg/kg)
One number for each entry, in mg/kg.

Using known records, supply LD50 for CC(=O)Oc1ccc(F)cc1CCC(=O)O [acide fluoro-5 acétyl mélilotique]
750
